Here, each record is paired with measured GI50 data.
- Tested on: SK-MEL-28
- PROTOCOL_SUMMARY: NCI tumour cell line growth inhibition, 48 h
Calls of active or inactive are those of the source. Cut-off read from the data, not from the text of the source: active = GI50 up to about 1.1 µM and inactive = higher.
QUANTITY_KIND: GI50

In [3]: df
Out[3]:
                                    compound  experimental_target               result
 0  CC(C)c1cccc(C(C)C)c1NC(=O)C(=O)C(C(=O)c1ccc2ccccc2c1)C1OC(=O)c2ccccc21 (stereo unspecified)            SK-MEL-28  > 100 µM (inactive)
 1  COc1ccc(N[C@H](C[S+]([O-])c2ccc(C)cc2)C(F)(F)C(F)(F)F)cc1 (stereo partly specified)            SK-MEL-28  > 100 µM (inactive)
 2  O=C(Nc1ccc(Cl)cc1Cl)C1C(=O)OC2(CCCCC2)OC1=O            SK-MEL-28   5.77 µM (inactive)
 3  Fc1cc(C2=Nn3c(COc4ccccc4Cl)nnc3S/C2=C\c2ccc(Cl)cc2)c(Cl)cc1Cl            SK-MEL-28   3.54 µM (inactive)
 4  CC1(S)CC2C(CC1Sc1ccccc1)C2(C)C (stereo unspecified)            SK-MEL-28  > 100 µM (inactive)
 5       S=C(Nc1ccc2c(c1)oc1ccccc12)c1cccnc1            SK-MEL-28  > 100 µM (inactive)
 6  C=C1CC[C@@H]2C(C)(C)C(O)CCC2(C)C1COc1ccc2ccc(=O)oc2c1 (stereo partly specified)            SK-MEL-28   18.1 µM (inactive)
 7   O=C(O)CN1CCN2CCCCCN(CC1)CCN(CC(=O)O)CC2            SK-MEL-28  > 100 µM (inactive)
 8  CCOc1ccc(Nc2nc3c(s2)C(=O)c2ccccc2C3=O)cc1            SK-MEL-28   18.9 µM (inactive)
 9  N=C(CCl)NC1CN2CCC1CC2 (stereo unspecified)            SK-MEL-28  > 100 µM (inactive)
10            O=Cc1ccc(OC[C@H]2COC(=O)N2)cc1            SK-MEL-28  > 100 µM (inactive)

* * *

- Tested on: UO-31
- PROTOCOL_SUMMARY: NCI tumour cell line growth inhibition, 48 h
The source made the active and inactive calls. Rule as the data show it: active = GI50 up to about 1.1 µM and inactive = higher.
QUANTITY_KIND: GI50

>>> df
                                    compound               result
 0  CCOP(=O)(OCC)C(C)(CC)NC (configuration not stated)  > 100 µM (inactive)
 1      CCCn1c(SCC)c2ccccc2c1-c1nc(F)nc(F)n1  > 100 µM (inactive)
 2  CC1=C2C(=O)OCC23C=COC3(C)O1 (configuration not stated)   30.8 µM (inactive)
 3  CC(C)C[C@H]1[C@@H](OCc2ccccc2)COS(=O)N1[C@H](C)c1ccccc1 (some centres not stated)   25.3 µM (inactive)
 4  COc1cccc(C[C@H]2COC(=O)[C@]2(O)Cc2cccc(OC)c2)c1  > 100 µM (inactive)
 5        O=C1OC(=O)c2c1nc1ccccc1c2-c1ccccc1  > 100 µM (inactive)
 6  CO/N=C(/C)c1cccc(Nc2nc3ccccc3c3[nH]c4ccccc4c23)c1   10.1 µM (inactive)
 7  O=C1Nc2ccccc2/C1=C\c1c(Cl)n(-c2ccccc2)c2ccccc12    2.4 µM (inactive)
 8  Nc1nnc(O)c2c1c(I)cn2C1OC(CO)C(O)C1O (configuration not stated)   1.52 µM (inactive)
 9  O=C1Nc2ccccc2/C1=C1/Nc2ccccc2/C1=N\OCCOC1OCC(O)C(O)C1O (configuration not stated)  > 100 µM (inactive)
10               Nc1nnc2oc3ccc4ccccc4c3cc1-2     32 µM (inactive)
11          CNC1=Nc2ccccc2C(=S)N2CSC[C@@H]12  > 100 µM (inactive)

* * *

Here, each record is paired with measured GI50 data.
- System: A549
- PROTOCOL_SUMMARY: NCI tumour cell line growth inhibition, 48 h
Activity calls are given as the source filed them. Rule as the data show it: active = GI50 up to about 1.1 µM and inactive = higher.

COMPOUND	EXPERIMENTAL_TARGET	GI50
O=C1C2C3C=C4c5ccccc5N(c5ccccc5)C4(C2C(=O)N1c1ccccc1)C1C(=O)N(c2ccccc2)C(=O)C31 (stereo unspecified)	A549	> 100 µM (inactive)
O=C(O)C[C@H]1CCCCC12CCOC2=O (stereo partly specified)	A549	> 100 µM (inactive)
NCCCCNOCCCN	A549	> 100 µM (inactive)
Cc1ccc([N+](=O)[O-])cc1NC1=NCCO1	A549	> 100 µM (inactive)
COC(=O)[C@@H]1[C@H](O)[C@H](C)[C@H](O)[C@@](C)(O)/C=C\C=C(\C)C(=O)Nc2c(C)c(OC(C)=O)c3c(c2O)C(=O)C(C)=C2OCOC(=C23)/C(C)=C/[C@@](C)(O)[C@H](O)[C@@H](C)[C@H]1OC(C)=O	A549	43.3 µM (inactive)
OC(c1ccc(-c2ccccc2)cc1)C(F)(F)c1nc2ccccc2o1 (stereo unspecified)	A549	40.4 µM (inactive)
Cc1cccc(NC(=O)C(=O)C(C2OC(=O)c3ccccc32)[N+](=O)[O-])c1C (stereo unspecified)	A549	18.3 µM (inactive)
CC(=O)NNC(=S)N/C=C1/C(=O)C=C(C)OC1=O	A549	> 100 µM (inactive)
O=C(Oc1cccnc1)c1cc2cc(CCl)ccc2oc1=O	A549	65.3 µM (inactive)
CCc1cccc(C)c1NC(=O)C(=O)CC(=O)c1ccc(Cl)s1	A549	> 100 µM (inactive)
Clc1ccc(-c2nnc3sc4nc5ccccc5c-4nn23)c(Cl)c1	A549	41.7 µM (inactive)
Nc1nc(Nc2ccccc2)sc1C(=O)c1ccco1	A549	17.1 µM (inactive)
CCN1C(=O)N(C)C(O)c2c1nc1ccccn1c2=O (stereo unspecified)	A549	34.2 µM (inactive)
CCOC(=O)C1=C(C)N(NC(=O)Nc2ccccc2)C2(N)N(NC(=O)Nc3ccccc3)C(C)=C(C(=O)OCC)C12C(=O)OCC (stereo unspecified)	A549	38.3 µM (inactive)
O=C(O)c1ccccc1/N=N/c1c(O)c(S(=O)(=O)O)cc2cc(S(=O)(=O)O)ccc12	A549	> 100 µM (inactive)
COc1ccc(S(=O)(=O)Nc2ccccc2C(=O)O)cc1	A549	> 100 µM (inactive)
O=C(CN1CCN(Cc2ccccc2)CC1)c1ccc2[nH]c(=O)oc2c1	A549	> 100 µM (inactive)
CCOC(=O)c1cc(C(=O)O)c(=O)n2c1[nH]c1ccccc12	A549	60.8 µM (inactive)
CC(C)(C)C(=O)Oc1ccc(/C=C/C(=O)c2ccc(OC(=O)C(C)(C)C)cc2)cc1	A549	67.6 µM (inactive)
CS/C(Nc1ccccc1)=C1\C(=O)N(c2ccccc2)N=C1C	A549	> 100 µM (inactive)
O=C(O)C/C=C/CC(=O)O	A549	> 100 µM (inactive)

* * *

- Test system: IGROV-1
- PROTOCOL_SUMMARY: NCI tumour cell line growth inhibition, 48 h
Active and inactive are the calls of the source. Rule as the data show it: active = GI50 up to about 1.1 µM and inactive = higher.
Outcomes: 1.0 (active), 0.0 (inactive)

>>> df
                                   molecule  class
0  COc1ccc2/c(=C/c3ccc(N(C)C)cc3)c3cc(-c4ccccc4)[n+](C)n3c2c1    1.0
1  O=C(/C=C1\Nc2ncccc2N=C1CC(=O)c1ccccc1)c1ccccc1    0.0
2  COC1(OC)CC2OC1C1N=NN(C(=O)OC(C)(C)C)C21 (centres undefined)    0.0
3  Cc1ccc(-c2cc(-c3ccccc3)c(C#N)c(=O)[nH]2)cc1    0.0
4  C/C(=N\NC(=S)N1CCC(C2CCN(C(=S)N/N=C(\C)c3ccccn3)CC2)CC1)c1ccccn1    0.0
5  CCCCCc1cc2cc3c(c(O)c2c(=O)[nH]1)C1(CCC3)C(=O)c2c(O)c3c(c(O)c2C1=O)C(=O)C(OC)=CC3=O (centres undefined)    1.0
6  Cc1ccccc1NC(=O)CC1C(=O)Nc2ccccc2[S+]1[O-] (centres undefined)    0.0
7  O=S(=O)(O)c1ccccc1/N=N\c1ccc(/N=N/c2c(O)ccc3ccccc23)c(S(=O)(=O)O)c1    0.0
8  [N-]=[N+]=NC1(Cc2ccccc2)C(=O)c2cccc3c2N(CCC3)C1=O (centres undefined)    0.0

* * *

- Test system: Malme-3M
- PROTOCOL_SUMMARY: NCI tumour cell line growth inhibition, 48 h
The source made the active and inactive calls. Rule as the data show it: active = GI50 up to about 1.1 µM and inactive = higher.
Here, each record is paired with measured GI50 data.
QUANTITY_KIND: GI50

In [3]: df
Out[3]:
                                    molecule  quantity_kind               result
 0  O=C(O)C(Cc1c[nH]c2ccccc12)C(=O)NO (stereo not drawn)           GI50  > 100 µM (inactive)
 1  CC(=O)Nc1ccc(/C=c2\sc3nnc(/C=C/c4ccccc4)n3c2=O)cc1           GI50   > 50 µM (inactive)
 2  O=C1Nc2ccccc2/C1=C1/Nc2ccccc2/C1=N\OCCOC1OCC(O)C(O)C1O (stereo not drawn)           GI50  > 100 µM (inactive)
 3   COC1CCC2C(=O)CCCC2O1 (stereo not drawn)           GI50  > 100 µM (inactive)
 4               C=CCOC(=O)Cn1cnc2c(N)ncnc21           GI50  > 100 µM (inactive)
 5  CC(C)C(Br)CC/C(CBr)=C(\Cl)CCl (stereo not drawn)           GI50   5.37 µM (inactive)
 6  O=C1C2C3C=C4c5ccccc5N(c5ccccc5)C4(C2C(=O)N1c1ccccc1)C1C(=O)N(c2ccccc2)C(=O)C31 (stereo not drawn)           GI50   7.67 µM (inactive)
 7       S=C(Nc1ccc2c(c1)oc1ccccc12)c1cccnc1           GI50  > 100 µM (inactive)
 8  O=C(O)C1OC1(c1cccc(Cl)c1)c1ccccc1Cl (stereo not drawn)           GI50   19.7 µM (inactive)
 9  CCOC(=O)C1=C(C)N(NC(=O)Nc2ccccc2)C2(N)N(NC(=O)Nc3ccccc3)C(C)=C(C(=O)OCC)C12C(=O)OCC (stereo not drawn)           GI50     33 µM (inactive)
10        O=C1OC(=O)c2c1nc1ccccc1c2-c1ccccc1           GI50  > 100 µM (inactive)
11  CC1(S)CC2C(CC1Sc1ccccc1)C2(C)C (stereo not drawn)           GI50  > 100 µM (inactive)
12                 CC(=O)Nc1[nH]c(C#N)nc1C#N           GI50  > 100 µM (inactive)
13  COc1ccc(C(=O)C(c2ccc(OC)cc2)C2(O)C(=O)Nc3ccccc32)cc1 (stereo not drawn)           GI50  > 100 µM (inactive)
14                  CC(CCN)(CCN)[N+](=O)[O-]           GI50  > 100 µM (inactive)
15     Cc1cc(C)c(-n2[nH]c(=O)n(C)c2=O)c(C)c1           GI50  > 100 µM (inactive)
16     CN(C)CCNC(=O)c1cccc(CO)c1[N+](=O)[O-]           GI50  > 100 µM (inactive)
17  COC(C)(C)OCCN1CCN(CCN2C3=C(C=C(C(C)=O)C3)Sc3ccccc32)CC1           GI50   21.3 µM (inactive)
18  CCOc1ccc(Nc2nc3c(s2)C(=O)c2ccccc2C3=O)cc1           GI50   2.77 µM (inactive)
19  Cc1ccccc1NC(=O)CC1C(=O)Nc2ccccc2[S+]1[O-] (stereo not drawn)           GI50  > 100 µM (inactive)
20        O=C1CCC(c2ccccc2)=NN1c1nc2ccccc2s1           GI50   32.2 µM (inactive)
21          O=C1C=Cc2c(-c3ccccc3)oc3cccc1c23           GI50     37 µM (inactive)
22  O=C(c1ccco1)N(C(=S)OC12CC3CC(CC(C3)C1)C2)c1ccccc1           GI50   26.8 µM (inactive)
